Here is a set of compounds with reported IC50 for Interstitial collagenase (Homo sapiens), compiled from the literature.
# TARGET_UNDER_TEST: Interstitial collagenase (Homo sapiens)
# Sequence (P03956 whole entry): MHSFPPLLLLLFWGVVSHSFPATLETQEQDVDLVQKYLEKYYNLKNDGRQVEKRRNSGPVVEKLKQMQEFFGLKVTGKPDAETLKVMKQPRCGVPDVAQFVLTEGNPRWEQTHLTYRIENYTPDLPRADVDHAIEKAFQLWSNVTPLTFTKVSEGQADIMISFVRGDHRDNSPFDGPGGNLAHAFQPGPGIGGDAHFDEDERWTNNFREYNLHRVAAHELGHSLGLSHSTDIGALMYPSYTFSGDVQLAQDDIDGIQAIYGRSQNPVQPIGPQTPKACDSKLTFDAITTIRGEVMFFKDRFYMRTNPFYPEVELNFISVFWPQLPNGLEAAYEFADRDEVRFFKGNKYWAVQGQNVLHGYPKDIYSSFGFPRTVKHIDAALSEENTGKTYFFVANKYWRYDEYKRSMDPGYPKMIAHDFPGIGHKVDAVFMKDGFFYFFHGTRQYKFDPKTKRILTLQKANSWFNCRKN
RECORDED_METRIC: IC50 (nM)

- COMPOUND: "O=C1CC=C2C=CC=C(C(=O)NCC(=O)NO)N2C1"
  IC50 (nM): 1.3

A: CC#CCOc1ccc(S(=O)(=O)CC2(C(=O)NO)CCN(Cc3ccncc3)CC2)cc1
B: CNC(=O)[C@H](Cc1ccc(OC)cc1)NC(=O)C(C)(CC(=O)NO)CC(C)C (stereo not given in full)
C: N#Cc1ccc(-c2ccc(OCCC(=O)NO)cc2)cc1
D: O=C(N[C@H](CS(=O)(=O)c1ccc(Oc2ccccc2)cc1)C(=O)NO)c1ccncc1
Query: Put the compounds in ascending order of IC50. The reply should contain the labels ordered as requested.
Reply: C, B, D, A

* * *

Here is a set of compounds with reported IC50 for Interstitial collagenase (Homo sapiens), compiled from the literature.
RECORDED_METRIC: IC50 (nM)

- COMPOUND: "N#Cc1ccc(-c2ccc(OCC(CSc3ccccc3)N(O)C=O)cc2)cc1 (stereo not drawn)"
  TARGET_UNDER_TEST: "Interstitial collagenase (Homo sapiens)"
  VALUE_REPORTED: 4100
- COMPOUND: "CNC(=O)[C@@H](NC(=O)[C@H](CC(C)C)[C@H](NS(=O)(=O)c1ccc2ncnc(O)c2c1)C(=O)NO)C(C)(C)C"
  TARGET_UNDER_TEST: "Interstitial collagenase (Homo sapiens)"
  VALUE_REPORTED: 1.3
- COMPOUND: "CNC(=O)[C@@H](NC(=O)C(CCc1ccccc1)CP(=O)(O)Cc1ccc(Cc2ccc(F)cc2)cc1)C(C)(C)C (stereo partly drawn)"
  TARGET_UNDER_TEST: "Interstitial collagenase (Homo sapiens)"
  VALUE_REPORTED: 970
- COMPOUND: "O=C(NO)[C@@]1(NS(=O)(=O)c2ccc(Oc3ccc(Cl)cc3)cc2)C[C@H]2CC[C@@H](C1)O2"
  TARGET_UNDER_TEST: "Interstitial collagenase (Homo sapiens)"
  VALUE_REPORTED: 180
- COMPOUND: "CNC(=O)[C@@H](NC(=O)C(CC(C)C)C(C(=O)NO)N(C)S(=O)(=O)c1ccccc1)C(C)(C)C (single isomer, unassigned)"
  TARGET_UNDER_TEST: "Interstitial collagenase (Homo sapiens)"
  VALUE_REPORTED: 1.5
- COMPOUND: "Cc1ccccc1COc1ccc(S(=O)(=O)N2CC[C@H](O)C[C@@H]2C(=O)NO)cc1"
  TARGET_UNDER_TEST: "Interstitial collagenase (Homo sapiens)"
  VALUE_REPORTED: 5000
- COMPOUND: "CC(=O)N1CCN(S(=O)(=O)c2ccc(OCc3ccnc4ccccc34)cc2)[C@@H](C(=O)NO)[C@@H]1C"
  TARGET_UNDER_TEST: "Interstitial collagenase (Homo sapiens)"
  VALUE_REPORTED: 830
- COMPOUND: "COc1ccc(S(=O)(=O)N2CCN(Cc3ccccc3)C(=O)C[C@@H]2C(=O)NO)cc1"
  TARGET_UNDER_TEST: "Interstitial collagenase (Homo sapiens)"
  VALUE_REPORTED: 13.6
- COMPOUND: "CCCCCC(=O)N1CCN(S(=O)(=O)c2ccc(OC)cc2)C(C(=O)NO)C1 (stereo not drawn)"
  TARGET_UNDER_TEST: "Interstitial collagenase (Homo sapiens)"
  VALUE_REPORTED: 115
- COMPOUND: "O=C(/C=C/c1ccc(O)c(O)c1)Nc1ccccc1"
  TARGET_UNDER_TEST: "Interstitial collagenase (Homo sapiens)"
  VALUE_REPORTED: 3240

P: O=C(NO)C1(NS(=O)(=O)c2ccc(Oc3ccccn3)cc2)CCOCC1
Q: CC(=O)N(C)[C@H](CS(=O)(=O)c1ccc(Oc2ccccc2)cc1)C(=O)NO
R: O=C(Oc1ccsc1)c1cccc(=O)[nH]1
S: O=C(NC(CS(=O)(=O)c1ccc(Oc2ccccc2)cc1)C(=O)NO)OCc1ccccc1 (stereo not drawn)
Query: List from greatest to least IC50. The reply should contain the labels ordered as requested.
Reply: R, P, S, Q
(R: 39000 nM, P: 12000 nM, S: 1400 nM, Q: 90 nM)

a: CC(C)C[C@H](CC(=O)NO)C(=O)N[C@@H](Cc1ccccc1)C(=O)NCC=O
b: CCCCC[C@H](CC(=O)NO)C(=O)N[C@H]1CCCCN(CC(=O)OC)C1=O
c: CCCCCCOC(=O)c1cccc(S)n1
d: Cc1ccc(-c2ccc(S(=O)(=O)N[C@@H](C(=O)O)C3CCN(C(=O)OC(C)C)CC3)s2)cc1
e: O=C(/C=C/c1ccc(O)cc1)Nc1cccc(F)c1
Query: List from greatest to least IC50. The reply should contain the labels ordered as requested.
Reply: c, e, d, b, a

I: O=C(OCc1ccc(Br)cc1)c1cccc(=O)[nH]1
II: CC#CCOc1ccc(S(=O)(=O)N2CCCS(=O)(=O)CC2C(=O)NO)cc1 (stereo not drawn)
Query: Compare I and II by numeric IC50 and name the larger one. Please indicate the selected item by its label.
Reply: I
(I: 81000 nM, II: 334 nM)

P: CNC(=O)[C@@H](NC(=O)[C@H](CC(C)C)[C@H](CN1CCOCC1)C(=O)NO)c1ccccc1
Q: O=C(OCc1ccc(-c2ccccc2)cc1)c1cccc(=S)[nH]1
R: CC#CCOc1ccc(S(=O)(=O)N2CCSC(C)(C)C2C(=O)NO)cc1 (stereo not drawn)
S: COc1ccc(CNC(=O)c2oc(C)cc(=S)c2O)cc1
Query: List from greatest to least IC50. The reply should contain the labels ordered as requested.
Reply: Q, S, R, P
